- target or test system: skeletal myofibrils (myosin ATPase activity)
- assay name: Skeletal Myofibril ATPase Assay
- condition details: PK-LDH coupled, absorbance at 340 nm
Each entry below carries its reported IC50.

Below, each entry is followed by its recorded IC50 result.
Query block: Param readout = IC50; param system = skeletal myofibrils (myosin ATPase activity); param query = O=c1ccc(-c2ccc(OC(F)F)cc2)nn1Cc1nc(C2CC2)no1 [Compound 208] ; response: value
Result block: < 10 µM

Query block: Param readout = IC50; param system = skeletal myofibrils (myosin ATPase activity); param query = CC(=O)c1cc(Cn2nc(-c3cnc(OCC(F)(F)F)nc3)ccc2=O)on1 [Compound 33] ; response: value
Result block: < 10 µM

Query block: Param readout = IC50; param system = skeletal myofibrils (myosin ATPase activity); param query = O=c1ccc(-c2cnc(N3CCC[C@H]3C(F)(F)F)nc2)nn1Cc1cncc(F)c1 [Compound 74] ; response: value
Result block: < 10 µM

Others:
Query block: Param readout = IC50; param system = skeletal myofibrils (myosin ATPase activity); param query = O=c1ccc(-c2ccc(OC(F)F)cc2)nn1Cc1nnc(C(F)(F)F)[nH]1 [Compound 236] ; response: value
Result block: > 100 µM

* * *

- target or test system: skeletal myofibrils (myosin ATPase activity)
- assay name: Skeletal Myofibril ATPase Assay
- condition details: PK-LDH coupled, absorbance at 340 nm
pIC50: −log10 of the molar value.
measurement type: pIC50

Below, each entry is followed by its recorded pIC50 result.
Query block: Entry under review: CCOc1ncc(-c2ccc(=O)n(Cc3cncc(F)c3)n2)cn1 . Reported pIC50?
Result block: > 5.00

Query block: Entry under review: O=c1ccc(-c2cnc(OCC(F)(F)F)nc2)nn1Cc1cc[n+]([O-])cc1 . Reported pIC50?
Result block: < 4.00

Query block: Entry under review: CC[C@@H](C)Oc1ncc(-c2ccc(=O)n(Cc3cncc(F)c3)n2)cn1 . Reported pIC50?
Result block: > 5.00

Query block: Entry under review: O=c1ccc(-c2cnc(N3CCC[C@@H]3C(F)(F)F)nc2)nn1Cc1cncc(F)c1 . Reported pIC50?
Result block: > 5.00

Query block: Entry under review: CN(CC(F)(F)F)c1ncc(-c2ccc(=O)n(Cc3cncc(F)c3)n2)cn1 . Reported pIC50?
Result block: > 5.00

Others:
Query block: Entry under review: O=c1ccc(-c2cnc(OCC(F)(F)F)nc2)nn1Cc1ccc2[nH]ncc2c1 . Reported pIC50?
Result block: > 5.00

Query block: Entry under review: CCOc1ccc(-c2ccc(=O)n(Cc3nc(-c4cccs4)no3)n2)cc1 . Reported pIC50?
Result block: > 5.00

Query block: Entry under review: O=c1ccc(-c2ccc(OC(F)F)nc2)nn1Cc1ocnc1-c1ccccc1 . Reported pIC50?
Result block: < 4.00

Query block: Entry under review: O=c1ccc(-c2ccc(OC(F)F)cc2)nn1Cc1nc2ccccc2[nH]1 . Reported pIC50?
Result block: < 4.00

Query block: Entry under review: O=c1ccc(-c2cnc(OCC(F)(F)F)nc2)nn1Cc1nc(-c2ccc(F)cc2)no1 . Reported pIC50?
Result block: > 5.00

Query block: Entry under review: O=c1ccc(-c2cnc(OCC(F)(F)F)nc2)nn1Cc1cc(C(F)F)no1 . Reported pIC50?
Result block: > 5.00

Query block: Entry under review: O=c1ccc(-c2cnc(OCC(F)(F)F)nc2)nn1Cc1cncc(F)c1 . Reported pIC50?
Result block: > 5.00

Query block: Entry under review: Cc1ncc(Cn2nc(-c3cnc(OCC(F)(F)F)nc3)ccc2=O)cc1Cl . Reported pIC50?
Result block: > 5.00

Query block: Entry under review: O=c1ccc(-c2ccc(OC(F)F)cc2)nn1Cc1nnc(C(F)(F)F)o1 . Reported pIC50?
Result block: 4.00 to 5.00
